Every entry's value here was drawn from patent US9957267B2.

# tgt: SSTR4 (Homo sapiens, UniProt P31391)
# Construct: expressed in transfected cells
# Sequence (P31391 whole entry): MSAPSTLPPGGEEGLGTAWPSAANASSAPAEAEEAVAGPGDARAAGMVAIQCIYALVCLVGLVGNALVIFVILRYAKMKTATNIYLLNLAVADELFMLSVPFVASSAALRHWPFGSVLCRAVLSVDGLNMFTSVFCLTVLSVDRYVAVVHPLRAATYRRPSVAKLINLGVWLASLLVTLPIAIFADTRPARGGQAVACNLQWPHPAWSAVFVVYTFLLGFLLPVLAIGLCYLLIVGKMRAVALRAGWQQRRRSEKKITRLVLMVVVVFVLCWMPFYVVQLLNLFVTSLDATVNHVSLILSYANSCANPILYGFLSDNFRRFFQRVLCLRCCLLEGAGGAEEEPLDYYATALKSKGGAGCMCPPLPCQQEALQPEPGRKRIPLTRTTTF
# assay text: cAMP functional agonist assay, CHO cells expressing SSTR4
# Type: cell-based
# experimental setup: CHO cells stably expressing SSTR4, cAMP; read-out: SSTR4 EC50
metric name: EC50

These recorded examples may help you get a feel for the data.
- compound: "Cc1cc(C)cc(-c2cnc3ncn(-c4cccc(O)c4)c(=O)c3c2CN(C)CCN)c1"
  measured value: "< 0.1 µM"
- compound: "Cc1cc(C)cc(-c2cnc3ncn(-c4cc(O)cc(F)c4)c(=O)c3c2CN(C)C[C@@H]2CCCCN2)c1"
  measured value: "< 0.1 µM"
- compound: "Cc1cc(Cl)cc(-c2cnc3ncn(-c4cc(O)cc(Cl)c4)c(=O)c3c2CN(C)C[C@@H]2CCCN2)c1"
  measured value: "< 0.1 µM"
- compound: "Cc1cc(C)c(F)c(-c2cnc3ncn(-c4cccc(O)c4)c(=O)c3c2CN(C)CC2CCCCN2)c1 (centres unmarked)"
  measured value: "< 0.1 µM"

EC50 for Cc1cc(CO)cc(-c2cnc3ncn(-c4cccc(O)c4)c(=O)c3c2CN(C)C[C@@H]2CCCN2)c1 is < 0.1 µM

Quick note, EC50 for Cc1cc(Cl)cc(-c2cnc3ncn(-c4cc(O)ccc4F)c(=O)c3c2CN(C)C[C@@H]2CCCN2)c1 landed at < 0.1 µM

The recorded EC50 for CC[C@H](N)CN(C)Cc1c(-c2cc(C)cc(Cl)c2)cnc2ncn(-c3cc(O)cc(C(F)(F)F)c3)c(=O)c12 is < 0.1 µM

Recorded EC50 (compound Cc1cc(Cl)cc(-c2cnc3ncn(-c4cc(O)cc(C#N)c4)c(=O)c3c2CN(C)C[C@@H]2CCCN2)c1 ): < 0.1 µM

Field EC50 (entry Cc1ccccc1-c1cnc2ncn(-c3cccc(O)c3)c(=O)c2c1CN(C)CC1CCCCN1 (centres unmarked) ) reads < 0.1 µM

For Cc1cc(C)cc(-c2cnc3ncn(-c4cccc(O)c4)c(=O)c3c2CN(C)CCNCc2ccccc2)c1 the compound record lists EC50 as 0.1 to 10 µM

Measured EC50 of Cc1cc(Cl)cc(-c2cnc3nc(C)n(-c4cc(O)cc(F)c4)c(=O)c3c2CN(C)C[C@@H]2CCCN2)c1 : < 0.1 µM

Notebook: Cc1cc(Cl)cc(-c2cnc3ncn(-c4cccc(C(N)=O)c4)c(=O)c3c2CN(C)C[C@@H]2CCCN2)c1 , EC50 read as < 0.1 µM

# EC50 (compound: CC[C@H](N)CN(C)Cc1c(-c2cc(C)cc(Cl)c2)cnc2ncn(-c3cc(O)cc(F)c3)c(=O)c12 ) is < 0.1 µM

Quick note, EC50 for Cc1cc(F)cc(-c2cnc3ncn(-c4cccc(O)c4)c(=O)c3c2CN(C)CC2CCCCN2)c1 (centres unmarked) landed at < 0.1 µM
